# PROTOCOL NOTES: yeast transport mutant growth inhibition pilot in 384-well plates, post-Golgi transport modulator project (AID 636)
# MEASUREMENT CONDITIONS: absorbance 615 nm, about 18 h, hits give high values
MEASURE NAME: inhibition (%)
Report the value in % with no unit label.

Notebook: CCC(=O)N1CCN(c2nc(-c3ccccc3)c3c(c2C#N)CCCC3)CC1 , inhibition read as -8.24

The compound CS(=O)(=O)Nc1ccccc1C(=O)O showed inhibition equal to -2.34

Record Cc1cccc(C(=O)N2CCN(C(=O)c3cccc(C)c3)C(C)C2)c1 (stereo unspecified) . Reported inhibition: -1.76

Form: compound = CC(=O)c1cc2c(cc1NC(=O)CN1CCN(C(=O)c3ccco3)CC1)OCO2 ; inhibition = -5.47

compound CCN1C(=O)c2ccccc2S(=O)(=O)c2ccc(C(=O)NCc3cccnc3)cc21 , inhibition observed: 0.93

Lookup result for O=C1c2ccccc2C(Nc2ccc3c(c2)OCO3)N1Cc1ccc2c(c1)OCO2 (stereo unspecified) ; measured inhibition: -0.27

###

For each of the molecules below, state its growth inhibition.
# PROTOCOL NOTES: S. cerevisiae growth inhibition in permissive medium (OD615), pilot counter-assay for S. cerevisiae lifespan shortening project, permissive growth control (AID 705)
# MEASUREMENT CONDITIONS: OD615, 24 h, at 10 µM, hits give high values
Reply numerically in %, unit not repeated.

// growth inhibition lookup, molecule = Cn1c(=NC(=O)c2ccco2)sc2cccc(F)c21 , result: -12.6

Record O=C(NCCN1C(=O)C2C3C=CC(C3)C2C1=O)Nc1ccccn1 (stereo not given) . Reported growth inhibition: 5

Record O=C(Nc1ccc2c(c1)OCO2)c1ccc(CN2CCOCC2)cc1 . Reported growth inhibition: -6.27

Lab note: measured growth inhibition of O=C(COC(=O)C1CC(=O)N(C2CCCCC2)C1)c1ccc(F)cc1 (stereo not given) was -2.56

Recorded growth inhibition (molecule O=C(Nc1ccncc1)c1cccc(F)c1 ): -5.12

growth inhibition in this record for COc1cccc(NC(=O)c2nnn(Cc3ccc(Br)cc3F)c2N)c1 : -7.21

Sure, the documented growth inhibition for COc1ccc(N(C)C(=O)c2ccc3snnc3c2)cc1 is 4.09

For reference, reported growth inhibition for CCCC(=O)NCCc1nc2ccccc2n1CCC stands at -7.3

Noted for CC(=O)NC(CCS(C)(=O)=O)C(=O)Nc1cc(C)on1 (stereo not given) : its growth inhibition reads -14.1

In plain terms, CCCS(=O)(=O)N1CCN(C(=O)c2cccnc2)CC1 has a documented growth inhibition of -8.47

Reported growth inhibition of CCN1CCCC1CNC(=O)c1cc2c(=O)n(C)c3ccccc3c2n1C (stereo not given) : -1.93

So, CCC(C)(C(=O)NC1CCCC1)N(Cc1cccs1)C(C)=O (stereo not given) ? Its growth inhibition was -17.6

Data point: CCC(C)(NC(=O)CNC(C)=O)C(=O)NC1CCCCC1 (stereo not given) ; growth inhibition = -15.5

Noted for CCCC(=O)Nc1nc2ccc(S(N)(=O)=O)cc2s1 : its growth inhibition reads -4

Per the records, this molecule ( CCOC(=O)CSC(CC)C(=O)Nc1nnc(CC)s1 (stereo not given) ) has growth inhibition equal to -15.4

The recorded growth inhibition for Cc1ccc(S(=O)(=O)C(C#N)c2nc3ccccc3nc2N2CCCCC2)cc1 (stereo not given) is -26.9

The reported value for Cc1[nH]c2ccccc2c(=O)c1CN1CCCCC1 in terms of growth inhibition is -17.1

Memo: Cc1cc(C)n(-c2ccc(N3CCOCC3)nn2)n1 , reported growth inhibition: 1.14

Measured growth inhibition, Cc1cc(C)nc(SCC(=O)OCN2C(=O)c3ccccc3C2=O)n1 : -19.7

The measured growth inhibition associated with Cc1c(Cl)cccc1NC(=O)CCN1CCCCC1 reads -7.21

Record summary for Cn1c(=O)oc2cc(S(=O)(=O)N3CCCC(C(=O)N4CCc5ccccc5C4)C3)ccc21 (stereo not given) : reported growth inhibition = 1.16

Given item CC(=O)Nn1cc2c(c1-c1ccccc1)c(=O)n(C)c(=O)n2C , the value recorded as its growth inhibition is -10

Value of measured growth inhibition for the entry CCCC(=O)NCCc1cc2c(C)ccc(C)c2[nH]c1=O : -4.56

Query Cc1ccc(C2CC(=O)NC(SCCC(C)C)=C2C#N)cc1 (stereo not given) yields growth inhibition of -9.08

get_value(item= COc1cccc(C(=O)OCn2nnc3ccccc3c2=O)c1OC , readout=growth inhibition) returns 8.45
